- MEASUREMENT_TARGET: CCK receptor (Rattus norvegicus, UniProt P30551)
- Construct: The whole pancreas was dissected free of fat tissue and was homogenized; from tissue; host or cells: rat whole pancreas membrane homogenate
- Sequence (P30551 whole entry): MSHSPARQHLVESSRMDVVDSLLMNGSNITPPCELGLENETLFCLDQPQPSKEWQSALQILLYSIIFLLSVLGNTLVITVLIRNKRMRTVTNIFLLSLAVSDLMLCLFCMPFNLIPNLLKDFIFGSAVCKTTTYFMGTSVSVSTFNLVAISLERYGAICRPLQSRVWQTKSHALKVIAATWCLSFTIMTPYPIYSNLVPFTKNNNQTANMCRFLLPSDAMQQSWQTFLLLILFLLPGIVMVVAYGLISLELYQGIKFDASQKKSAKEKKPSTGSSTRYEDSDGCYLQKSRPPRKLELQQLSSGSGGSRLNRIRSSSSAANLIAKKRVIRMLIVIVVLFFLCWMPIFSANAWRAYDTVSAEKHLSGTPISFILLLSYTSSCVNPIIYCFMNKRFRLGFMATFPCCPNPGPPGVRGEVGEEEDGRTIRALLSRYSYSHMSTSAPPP
- EXPERIMENT_DESCRIPTION: CCK Receptor Binding (Pancreas), 125I-CCK-33
- Design: species or system rats
- CONDITIONS_USED: inhibition of 125I-CCK-33 binding, rat pancreas membranes, 37°C, 30 minutes; read-out: IC50(µM) ^125I-CCK Pancreas
EXPERIMENTAL_ENDPOINT: IC50 (µM)

Answered examples (3):
CSCC[C@H](NC(=O)OC(C)(C)C)C(=O)NCC(=O)N[C@@H](Cc1c[nH]c2ccccc12)C(=O)Nc1ccccc1C(=O)c1ccccc1    2.4
O=C(N[C@@H](CC1CNc2ccccc21)C(=O)Nc1ccc(Cl)cc1C(=O)c1ccccc1)c1ccsc1 (single isomer, unassigned) [Example 22B]    2.2
O=C(N[C@@H](Cc1c[nH]c2ccccc12)C(=O)Nc1ccc(Cl)cc1C(=O)c1ccccc1)c1ccsc1    0.4

[a] CC(C)(C)OC(=O)N[C@@H](Cc1c[nH]c2ccccc12)C(=O)Nc1ccccc1C(=O)c1ccccc1
[b] CC(=O)N[C@@H](Cc1c[nH]c2ccccc12)C(=O)Nc1ccccc1C(=O)c1ccccc1
Identify the entry with the smaller IC50: a or b . // return label of chosen record
b

[P] CC(C)(C)OC(=O)N[C@@H](Cc1c[nH]c2ccccc12)C(=O)Nc1ccccc1C(=O)c1ccccc1F
[Q] O=C(N[C@@H](Cc1c[nH]c2ccccc12)C(=O)Nc1ccccc1C(=O)c1ccccc1)c1ccsc1
[R] O=C(N[C@@H](Cc1c[nH]c2ccccc12)C(=O)Nc1ccccc1C(=O)c1ccccc1)c1ccc(Cl)cc1
[S] CC(C)(C)OC(=O)NCC(=O)N[C@@H](Cc1c[nH]c2ccccc12)C(=O)Nc1ccccc1C(=O)c1ccccc1
Returns the items ordered by IC50, from maximum to minimum. Please express your ranking as an ordered list of the labels.
S, P, R, Q
(S: 8 µM, P: 3.7 µM, R: 0.9 µM, Q: 0.19 µM)

###

Below, each entry is listed with its recorded IC50.
- MEASUREMENT_TARGET: CCK receptor (Rattus norvegicus)
- Construct: The whole pancreas was dissected free of fat tissue and was homogenized; from tissue; host or cells: rat whole pancreas membrane homogenate
- EXPERIMENT_DESCRIPTION: CCK Receptor Binding (Pancreas), 125I-CCK-33
- Set-up: species or system rats
- CONDITIONS_USED: inhibition of 125I-CCK-33 binding, rat pancreas membranes, 37°C, 30 minutes; read-out: IC50(µM) ^125I-CCK Pancreas
Report the value in µM with no unit label.

Answered examples (2):
O=C(CCc1c[nH]c2ccccc12)Nc1ccc(Cl)cc1C(=O)c1ccccc1 [Example 13]    10
O=C(NC(Cc1cccs1)C(=O)Nc1ccccc1C(=O)c1ccccc1F)c1ccsc1 (racemic) [Example 12]    1.3

Turning to the following molecule.
Quick check: IC50 of CC(C)(C)OC(=O)N[C@@H](Cc1c[nH]c2ccccc12)C(=O)Nc1ccc(Cl)cc1C(=O)c1ccccc1 [Example 2] ?
0.74
